variants and their reported FACS-Seq fitted mean (log10)
B1: library; a variant is named by its letters at N, in order (parent)
chain: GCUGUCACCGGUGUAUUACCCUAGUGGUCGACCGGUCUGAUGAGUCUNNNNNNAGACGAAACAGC

Variants of: B1
Experiment: FACS-Seq fitted mean relative fluorescence mCherry/BFP with ligand (log10 relative fluorescence); ligand: hypoxanthine (xanthine aptamer); ligand concentration (+) FACS-Seq: 5 mM; higher = higher reporter protein expression
Settings: HEK293T, ligand present: yes
reported-endpoint: FACS-Seq fitted mean (log10)

In [3]: df
Out[3]:
                               residue_codes             reported_endpoint  recorded_number
 0  GCUGUCACCGGUGUAUUACCCUAGUGGUCGACCGGUCUGAUGAGUCUCGGUUCAGACGAAACAGC [CGGUUC]  FACS-Seq fitted mean (log10)            0.211
 1  GCUGUCACCGGUGUAUUACCCUAGUGGUCGACCGGUCUGAUGAGUCUAAGGCGAGACGAAACAGC [AAGGCG]  FACS-Seq fitted mean (log10)            0.526
 2  GCUGUCACCGGUGUAUUACCCUAGUGGUCGACCGGUCUGAUGAGUCUAGUUGGAGACGAAACAGC [AGUUGG]  FACS-Seq fitted mean (log10)            0.403
 3  GCUGUCACCGGUGUAUUACCCUAGUGGUCGACCGGUCUGAUGAGUCUUGGAUGAGACGAAACAGC [UGGAUG]  FACS-Seq fitted mean (log10)            0.341
 4  GCUGUCACCGGUGUAUUACCCUAGUGGUCGACCGGUCUGAUGAGUCUAGCAUAAGACGAAACAGC [AGCAUA]  FACS-Seq fitted mean (log10)            0.286
 5  GCUGUCACCGGUGUAUUACCCUAGUGGUCGACCGGUCUGAUGAGUCUUCUUUAAGACGAAACAGC [UCUUUA]  FACS-Seq fitted mean (log10)            0.327
 6  GCUGUCACCGGUGUAUUACCCUAGUGGUCGACCGGUCUGAUGAGUCUGAAGUUAGACGAAACAGC [GAAGUU]  FACS-Seq fitted mean (log10)           -0.587
 7  GCUGUCACCGGUGUAUUACCCUAGUGGUCGACCGGUCUGAUGAGUCUGAAGACAGACGAAACAGC [GAAGAC]  FACS-Seq fitted mean (log10)            0.505
 8  GCUGUCACCGGUGUAUUACCCUAGUGGUCGACCGGUCUGAUGAGUCUAGCGACAGACGAAACAGC [AGCGAC]  FACS-Seq fitted mean (log10)            0.298
 9  GCUGUCACCGGUGUAUUACCCUAGUGGUCGACCGGUCUGAUGAGUCUAUGUGAAGACGAAACAGC [AUGUGA]  FACS-Seq fitted mean (log10)             0.68
10  GCUGUCACCGGUGUAUUACCCUAGUGGUCGACCGGUCUGAUGAGUCUAUGGACAGACGAAACAGC [AUGGAC]  FACS-Seq fitted mean (log10)            0.843
11  GCUGUCACCGGUGUAUUACCCUAGUGGUCGACCGGUCUGAUGAGUCUACGGUAAGACGAAACAGC [ACGGUA]  FACS-Seq fitted mean (log10)            0.599
12  GCUGUCACCGGUGUAUUACCCUAGUGGUCGACCGGUCUGAUGAGUCUAAGAGAAGACGAAACAGC [AAGAGA]  FACS-Seq fitted mean (log10)            0.598
13  GCUGUCACCGGUGUAUUACCCUAGUGGUCGACCGGUCUGAUGAGUCUAGAUGGAGACGAAACAGC [AGAUGG]  FACS-Seq fitted mean (log10)           0.0811
14  GCUGUCACCGGUGUAUUACCCUAGUGGUCGACCGGUCUGAUGAGUCUGACACCAGACGAAACAGC [GACACC]  FACS-Seq fitted mean (log10)            0.365
15  GCUGUCACCGGUGUAUUACCCUAGUGGUCGACCGGUCUGAUGAGUCUCCACCCAGACGAAACAGC [CCACCC]  FACS-Seq fitted mean (log10)            0.312
16  GCUGUCACCGGUGUAUUACCCUAGUGGUCGACCGGUCUGAUGAGUCUGUCGGCAGACGAAACAGC [GUCGGC]  FACS-Seq fitted mean (log10)             0.81
17  GCUGUCACCGGUGUAUUACCCUAGUGGUCGACCGGUCUGAUGAGUCUAGCCCGAGACGAAACAGC [AGCCCG]  FACS-Seq fitted mean (log10)            0.388
18  GCUGUCACCGGUGUAUUACCCUAGUGGUCGACCGGUCUGAUGAGUCUGGAACGAGACGAAACAGC [GGAACG]  FACS-Seq fitted mean (log10)            0.597
19  GCUGUCACCGGUGUAUUACCCUAGUGGUCGACCGGUCUGAUGAGUCUGUUCGUAGACGAAACAGC [GUUCGU]  FACS-Seq fitted mean (log10)            0.538
20  GCUGUCACCGGUGUAUUACCCUAGUGGUCGACCGGUCUGAUGAGUCUGCAUGGAGACGAAACAGC [GCAUGG]  FACS-Seq fitted mean (log10)            0.701
21  GCUGUCACCGGUGUAUUACCCUAGUGGUCGACCGGUCUGAUGAGUCUGUAAAGAGACGAAACAGC [GUAAAG]  FACS-Seq fitted mean (log10)            -0.15
22  GCUGUCACCGGUGUAUUACCCUAGUGGUCGACCGGUCUGAUGAGUCUACUGAAAGACGAAACAGC [ACUGAA]  FACS-Seq fitted mean (log10)           0.0938
23  GCUGUCACCGGUGUAUUACCCUAGUGGUCGACCGGUCUGAUGAGUCUGCGGGGAGACGAAACAGC [GCGGGG]  FACS-Seq fitted mean (log10)            0.433
24  GCUGUCACCGGUGUAUUACCCUAGUGGUCGACCGGUCUGAUGAGUCUCACUUCAGACGAAACAGC [CACUUC]  FACS-Seq fitted mean (log10)           -0.484
25  GCUGUCACCGGUGUAUUACCCUAGUGGUCGACCGGUCUGAUGAGUCUGGUGUGAGACGAAACAGC [GGUGUG]  FACS-Seq fitted mean (log10)             0.24

The origin of these recorded values is the supplement of paper PMC6757056.
